Task for the reader: assign each of the following compounds its reported Caspase activity (Ratio).
# System: T-47D
# experiment-summary: Caspase cascade activation assay in T-47D cells (N-(Ac-DEVD)-N'-ethoxycarbonyl-R110 fluorogenic substrate)
# Type: cell-based
# condition-context: T-47D human breast cancer cells, 24 h incubation; ratio of net RFU of test compound to control

# query: Caspase activity (Ratio) | item COc1cc(C2C(C#N)=C(N)Oc3c2ccc2c3ccn2CC2CC2)cc(Br)c1OC (stereo not drawn) | system: T-47D
4.0

State its Caspase activity (Ratio) on T-47D: COc1cccc(C2C(C#N)=C(N)Oc3c2ccc2c3ccn2C)c1 (stereo not drawn)
4.6

// fetch T-47D Caspase activity (Ratio) for COc1cc(C2C(C#N)=C(N)Oc3c2ccc2c3ccn2C)cc(OC)c1OC (stereo not drawn)
5.5

Notebook: pull reported Caspase activity (Ratio) for T-47D, entry Cn1ccc2c3c(ccc21)C(c1cccc(C#N)c1)C(C#N)=C(N)O3 (stereo not drawn)
5.3

Which measured Caspase activity (Ratio) belongs to Cn1ccc2c3c(ccc21)C(c1cncc(C#N)c1)C(C#N)=C(N)O3 (stereo not drawn) , tested on T-47D?
8.3

Provide the documented Caspase activity (Ratio) with T-47D as the system for CC(C)n1ccc2c3c(ccc21)C(c1cc(Cl)cc(Cl)c1)C(C#N)=C(N)O3 (stereo not drawn)
1.8

###

# System: T-47D
# experiment-summary: Caspase cascade activation assay in T-47D cells (N-(Ac-DEVD)-N'-ethoxycarbonyl-R110 fluorogenic substrate)
# Assay type: cell-based
# condition-context: T-47D human breast cancer cells, 24 h incubation; ratio of net RFU of test compound to control
Threshold check on Caspase activity (Ratio): at or above 4 gives class 1, strictly below gives class 0.

Tell me whether Caspase activity (Ratio) is at least 4 here: Cc1cncc(C2C(C#N)=C(N)Oc3c2ccc2c3ccn2CO)c1 (stereo not drawn)
class 1

Answer whether Caspase activity (Ratio) of Cn1ccc2c3c(ccc21)C(c1ccc(Cl)c(F)c1)C(C#N)=C(N)O3 (stereo not drawn) [Example 40H] is greater than or equal to 4.
class 0

Hello, I need to know if Cn1ccc2c3c(ccc21)C(c1ccc(Cl)c(Cl)c1)C(C#N)=C(N)O3 (stereo not drawn) [Example 40E] has measured Caspase activity (Ratio) not below 4. Thanks!
class 0

Does Caspase activity (Ratio) meet or surpass 4 for Cn1ccc2c3c(ccc21)C(c1cccc(Br)c1)C(C#N)=C(N)O3 (stereo not drawn) ?
class 0

Item N#CC1=C(N)Oc2c(ccc3c2ccn3CO)C1c1cncc(Br)c1 (stereo not drawn) with Caspase activity (Ratio) of 4 or above?
class 0

API: above_or_equal(metric=Caspase activity (Ratio), cutoff=4) for item Cc1cncc(C2C(C#N)=C(N)Oc3c2ccc2c3ccn2C)c1 (stereo not drawn)
class 0

State whether the measured Caspase activity (Ratio) reaches 4, counting equality as reaching it, for Cn1ccc2c3c(ccc21)C(c1cccc(F)c1)C(C#N)=C(N)O3 (stereo not drawn) [Example 40A]
class 1

Please indicate if the recorded Caspase activity (Ratio) for Cn1ccc2c3c(ccc21)C(c1cncc(Br)c1)C(C#N)=C(N)O3 (stereo not drawn) meets or exceeds 4.
class 1

Has COc1cc(C2C(C#N)=C(N)Oc3c2ccc2c3ccn2CO)cc(OC)c1OC (stereo not drawn) a recorded Caspase activity (Ratio) greater than or equal to 4?
class 1

###

# Test system: T-47D
# experiment-summary: Caspase cascade activation assay in T-47D cells (N-(Ac-DEVD)-N'-ethoxycarbonyl-R110 fluorogenic substrate)
# Assay type: cell-based
# condition-context: T-47D human breast cancer cells, 24 h incubation; ratio of net RFU of test compound to control
Rule: True for Caspase activity (Ratio) not less than 4, False for anything less.

# check: Caspase activity (Ratio) of Cn1ccc2c3c(ccc21)C(c1ccc(C#N)cc1)C(C#N)=C(N)O3 (centres unmarked) [Example 40B] is greater than or equal to 4
True

Please check the record Cn1ccc2c3c(ccc21)C(c1cc(F)cc(F)c1)C(C#N)=C(N)O3 (centres unmarked) and state if its Caspase activity (Ratio) is at or above 4.
False

# bool: Caspase activity (Ratio) of Cn1ccc2c3c(ccc21)C(c1ccc([N+](=O)[O-])s1)C(C#N)=C(N)O3 (centres unmarked) >= 4
False

Say whether COc1cc(C2C(C#N)=C(N)Oc3c2ccc2c3CCN2C)cc(Br)c1OC (centres unmarked) shows Caspase activity (Ratio) of 4 or more.
True
